Test system: Plasmodium falciparum
Test: Calibr Malaria Delayed Death Assay SOP
Type: functional, organism-based
Set-up: scale not given: in the data most compounds retested in dose-response had high values
Conditions: concentration 4.99e-06 (unit not given; other assays of the set use mol/L)
The campaign covered roughly 38,000 compounds. About 1,200 (3.2%) showed an effect of 50% or more. The median lay at about -58%. For the sample, strong results were picked, then their nearest neighbours and some compounds at random.
Kindly supply the reported Percent Effect values for the records listed here.
Give bare numbers, in %.

In the examples that follow, each entry is paired with its recorded Percent Effect.
Lab note: O=C(O)C(F)(F)F.O=C(O)C(F)(F)F.O=S(=O)(C1CC1)N1CCC2(CCCN(Cc3ccccn3)C2)C1 (stereo not drawn) gave Percent Effect of 8.867

Lab note: N#Cc1cnc2c(F)cc(F)cc2c1NC1CCN(CC(N)=O)CC1 gave Percent Effect of -21.61

Lab note: CCN(CC)C(=O)C1CCN(c2ccc(Cl)cc2C#N)CC1 gave Percent Effect of -152.7

For every item in the list below, what is its measured Percent Effect?
1. COCCCC1CCN([C@@H]2c3ccccc3C3(CCNCC3)[C@H]2O)CC1
2. CC(C)N1CCCC(C(=O)NCCc2csc(-c3ccncc3)n2)C1 (stereo not drawn)

Output:
36.42
-80.76

For every item in the list below, what is its measured Percent Effect?
1. CN1CCN(c2ccccc2NC(=O)c2ccco2)CC1
2. Cc1ccc(CSc2ncc(Br)c(C(=O)O)n2)cc1
3. CC(C)n1cnnc1C1CCCN(S(=O)(=O)CC2CCCC2)C1 (stereo not drawn)
4. Cc1cc(N2CCC3(CCCN(C4CCOCC4)C3=O)C2)ccn1 (stereo not drawn)
5. N#Cc1cc(Cl)ccc1N1CCN(C(=O)C2CCC2)CC1
6. O=C(O)C(F)(F)F.c1cnc(N2C[C@H]3CCN(CC4CC4)C[C@H]3C2)cn1

Output:
1. 31.7
2. -107.1
3. -66.23
4. -85.7
5. -79.7
6. 16.16

For every item in the list below, what is its measured Percent Effect?
1. CC(C)n1cc(-c2nc3cc(S(=O)(=O)N4CCCC4)ccc3n2C)cn1
2. CCNc1nc(C)c(C(=O)N(C)Cc2nc(CC)no2)s1
3. CN1C(=O)CC[C@]12CC[C@@H](NC(=O)NCc1cccnc1)CC2.O=C(O)C(F)(F)F
4. O=C(COCC(=O)N(c1ccccc1)c1ccccc1)N1CCCCC1
5. CCn1ncc2c1C(COC)CN(Cc1nccs1)C2 (stereo not drawn)
6. O=C(O)C(F)(F)F.O=C(O)C(F)(F)F.c1cnc(N2CCC3(CCN(CC4CCOCC4)CC3)C2)nc1
7. c1cc(N2CCSCC2)ccc1CNc1cncc2nnnn12
8. COc1cc(C2CC(=O)Nc3c2nc2n3CCCC2)ccc1O (stereo not drawn)

Output:
[-92.66, -30.42, -78.37, -158.5, -17.13, -33.73, -124.6, -30.17]

For every item in the list below, what is its measured Percent Effect?
1. c1cc(CN2CCCC2)ccc1CNc1cncc2nnnn12
2. O=C(NC1CC1)c1cc2c(s1)CCN2C(=O)C1CC1
3. Cl.Cl.Cn1cnc2c(N3CCCC3)nc(C3CCNCC3)cc21
4. CCOCCN1CCN([C@@H]2c3ccccc3C3(CCNCC3)[C@H]2O)CC1

Output:
1: -34.44; 2: -64.25; 3: -34.14; 4: -70.37
